Tested on: SN12C renal
Assay: NCI-60 one-dose screen, 48 h
Test Conditions: 10 µM unless noted
Compounds without any hit were thinned out: in the full panel of roughly 83,000, 20% have a hit. The source made the active and inactive calls. Rule for the calls: active = growth percent below 10; inactive = the rest.
Possible outcomes: t = active, f = inactive

Molecule | Class Assignment
CC(=O)c1cc(C(=O)c2ccc3c(c2)Sc2ccccc2N3)c2cc(C)ccn12 | f
C=C1C(=O)O[C@H]2[C@H](O)[C@@H](C)CCC/C(C)=C/CC[C@@]3(C)O[C@@H]3C[C@@H]12 | f
CC1=C(C#N)C(C)(C)C(C#N)=C(C)N1 | f
C=C1C(=O)O[C@H]2[C@H]1CC/C(COC(=O)NCc1cc(OC)c(OC)c(OC)c1)=C\CC[C@@]1(C)O[C@@H]21 | f
CN(C)c1ccc(-c2ccc(-c3ccc(C(=N)N)cn3)o2)cc1 | t
COc1ccc(C2CC(=O)Nc3c2c(C)nn3-c2nc3ccccc3[nH]2)cc1OC (configuration not stated) | f
Nc1c(C(=O)Nc2cccc([N+](=O)[O-])c2)sc2nc3c(cc12)C(O)CCC3 (configuration not stated) | f
O=C(c1ccccc1)C(Cl)C(Cl)c1ccccc1 (configuration not stated) | t
Cc1ccc(Cn2c(-c3nonc3N)nc3ccccc32)cc1 | f
C=C1C(=O)O[C@H]2[C@H]1CC/C(COC(=O)NCCc1ccc(OC)cc1)=C\CC[C@@]1(C)O[C@@H]21 | f
O=C1Nc2cc(Cl)ccc2Oc2cc(Oc3ccccc3)ccc21 | f
CCCCCC(=O)OCc1ccccc1 | f
CCO/C=N/NC(=O)c1ccncc1 | f
Nc1nc(Cl)c2c(ncn2Cc2ccc(CCl)cc2)n1 | f
C/C(=N\NC(=O)CC#N)c1cc2cc(Cl)ccc2o1 | f
O=c1[nH]c2ccccc2cc1-c1nnc(Cc2ccccc2)o1 | f
O=C1CCC/C=C\C[C@H]2C=CC(=O)/C2=C/C[C@H](C/C=C\CC(F)(F)F)O1 | t
Clc1nc(Cl)c2ncn(C/C=C/Cn3cnc4c(Cl)nc(Cl)nc43)c2n1 | f
COc1cccc(/C=C/c2c(C(=O)O)cccc2[N+](=O)[O-])c1OC | f
CC(C)CCC[C@@H](C)[C@H]1CC[C@H]2[C@@H]3CC[C@H]4C/C(=N/O)CC[C@]4(C)[C@H]3CC[C@]12C | f
Clc1ccc(-c2nc(-c3ccco3)cn3ccnc23)cc1 | f
O=C(Nc1ccccc1)OCC1OCOC(COC(=O)Nc2ccccc2)C1OC(=O)Nc1ccccc1 (configuration not stated) | f
